Give measured protein stability index for each item. Keep answers brief.
test: protein stability index of a GFP-peptide fusion (GPS, HEK-293T) (PSI 1-6); higher = more stable; settings: treatment: DMSO; c terminus: a fixed tail appended;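 also: 24-mer peptide tiles fused after GFP, lentivirally expressed, FACS-sorted into six equal bins by GFP/DsRed ratio, decoded by Illumina sequencing, PSI is the read-weighted mean bin number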
Lab note: jot down the number only; don't add units.

The recorded protein stability index for entry PEHRAFGSPFGLEEPQWVPDKECR [ZFYVE21] equals 4.57

The recorded protein stability index for entry EKKRKEEEERRRREEEERERLQKE [ACBD3] equals 5.45

The recorded protein stability index for entry TTFQDVYFVSESFEDAKEKMREFT [TPH1] equals 3.61

The recorded protein stability index for entry PYPASKADIPSVAFSSRLGGSRGA [DCAF4] equals 3.71

The recorded protein stability index for entry LSANLHGGAVVANYPYDKSFEHRV [CPN1] equals 3.46

The recorded protein stability index for entry LPPSPPPSPASEQTVTVEEAAGGE [MAP2] equals 5.4

The recorded protein stability index for entry ISEEIQMSTKESDFLCLLGVSYTF [MIA2] equals 2.4

The recorded protein stability index for entry MERVNETVVREVIFLGFSSLARLQ [OR10K2] equals 2.64

The recorded protein stability index for entry RVRTVLNEKQLHTLRTCYAANPRP [ISL2] equals 2.74

The recorded protein stability index for entry QPNTYADFEFLAFWQTQYNNMNAV [PKD2L1] equals 2.21

The recorded protein stability index for entry LSALLQFGVTYLEDYSAEYIIQQG [BCL2L13] equals 2.9

The recorded protein stability index for entry VGRLYAVYDQAVSIFYDLPQGSGF [SMAD6] equals 2.54

The recorded protein stability index for entry IRDQMQQQLNDYEQLLDVKLALDM [LMNB1] equals 3.4

* * *

test: protein stability index of a GFP-peptide fusion (GPS, HEK-293T) (PSI 1-6); higher = more stable; conditions: treatment: MLN4924 1 uM, 8 h; c terminus: a fixed tail appended
Each entry gets class 0 if its protein stability index stays under 4, and class 1 if its protein stability index is 4 or above.

Is it the case that FVRLFVDENLDRMVPISKQPKEKI [NOL4L] has protein stability index reaching or exceeding 4? class 0

Is it the case that SDLTLYLVVAVAAVSCVFLAFVIV [PCDHGA10] has protein stability index reaching or exceeding 4? class 0

Is it the case that CHHLPVIRQLATSGRFIVIIPRTV [SMG5] has protein stability index reaching or exceeding 4? class 0

Is it the case that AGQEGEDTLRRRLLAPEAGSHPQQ [TOR1AIP2] has protein stability index reaching or exceeding 4? class 0

Is it the case that LLSILPSLLGLLSFPRNNISYLVL [JAGN1] has protein stability index reaching or exceeding 4? class 0

Is it the case that SSYYKFKLTREVLSLFVQKLGNLM [ZER1] has protein stability index reaching or exceeding 4? class 0

Is it the case that RKMEVEELSPLALGRFSLTPAEGD [CDC25B] has protein stability index reaching or exceeding 4? class 1

Is it the case that ESSDLQMDVMPGEGDLPQMEVGSG [EID1] has protein stability index reaching or exceeding 4? class 1

Is it the case that ERIQELEDLLAKEKDNSRRMLTDK [LMNB1] has protein stability index reaching or exceeding 4? class 1

Is it the case that TQPPDESCSQNLLITQQIIPVLYC [P2RY14] has protein stability index reaching or exceeding 4? class 0

Is it the case that AWETKKILAVSFAPLIQPCHSESG [PCMTD2] has protein stability index reaching or exceeding 4? class 0

FYI, the data here is from the supplement of paper PMC10567573.
